Target: Calmodulin-1 (Homo sapiens)
Experiment: small molecules binding Ca-loaded calmodulin-1 – biochemical, small-molecule microarray, Cy5-labelled CALM1, plus calcium, artefact control for SMM control-protein annotation, profiling panel (AID 1112);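 further: score merges spot fluorescence with signal to noise from triplicate slides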
Conditions: Cy5-CALM1 binding fluorescence, higher = more signal
Threshold check on composite z-score: at or above 0.4 gives fulfilled, strictly below gives not fulfilled.

[in] Does `C=CC[C@@]1(C(=O)N(C)C)N=C(c2ccc(OCCCO)cc2)O[C@@H]1c1ccccc1CN=[N+]=[N-]` have a reported composite z-score of at least 0.4?
[out] not fulfilled

[in] Threshold query (composite z-score >= 0.4) on `COCCOC(=O)N1C(=O)[C@@]2(c3cc(C#CC4(O)CCCCCC4)ccc31)[C@H](c1ccc(O)cc1)N1[C@H](c3ccccc3)[C@H](c3ccccc3)OC(=O)[C@H]1[C@@H]2C(=O)N1CCCCCCC1`
[out] not fulfilled

[in] Can `CCOC(=O)C[C@H]1[C@H](OC(=O)c2ccccc2-c2ccccc2)[C@@H](NC(=O)C2CCCCC2)c2cc(OCCCO)ccc2N1C(=O)c1ccc2ccccc2n1` be said to have composite z-score at or above 0.4?
[out] not fulfilled

[in] Item `COCCOC(=O)N1C(=O)[C@@]2(c3cc(C#CCC(C(=O)OC)C(=O)OC)ccc31)[C@H](C(=O)Nc1nc3ccccc3s1)[C@H]1C(=O)O[C@H](c3ccccc3)[C@H](c3ccccc3)N1[C@@H]2c1ccc(OCCO)cc1` with composite z-score of 0.4 or above?
[out] not fulfilled

[in] Quick check: does C=CCC(OC(C)=O)[C@@H]1[C@@H](N(Cc2cccc3ccccc23)C(=O)Cc2ccc(OC)cc2)c2cc(OCCCO)ccc2N1C(=O)Cc1ccc2ccccc2c1 (stereo not given in full) have composite z-score greater than or equal to 0.4?
[out] not fulfilled

[in] Hello, I need to know if `[N-]=[N+]=Nc1ccccc1[C@@H]1OC(c2ccc(OCCCO)cc2)=N[C@]1(Cc1ccccc1)C(=O)NCCN1CCOCC1` has measured composite z-score not below 0.4. Thanks!
[out] fulfilled

[in] # bool: composite z-score of `O=C1[C@H]2C=C(I)[C@H](C[C@@H]2OCCCCCCO)[C@@]12CO2` >= 0.4
[out] not fulfilled

[in] Is composite z-score at least 0.4? Consider `C=C(CCCC)C(=O)CC[C@@H](OC(=O)c1ccccc1-c1ccccc1C(=O)O)c1ccccc1OCCO`
[out] not fulfilled

[in] Check the entry O=C1C2C=CC(C(O)c3ccc([N+](=O)[O-])cc3)N(Nc3ccccc3F)C2C(=O)N1c1ccccc1 (stereo not given) : does composite z-score equal or exceed 0.4?
[out] not fulfilled

[in] Say whether C=CC1c2cc(O)c(OC)cc2CCN1C (stereo not given) shows composite z-score of 0.4 or more.
[out] fulfilled

[in] Does the molecule `CN1C(=O)[C@@H]2[C@@H](CC(COc3ccccc3)=C3[C@@H](CCc4ccccc4)OB(O)C[C@@H]32)C1=O` have recorded composite z-score that is 0.4 or more?
[out] fulfilled

[in] I'd appreciate it if you could say whether `C=C(COC)/C(=C/C[C@@H](OC(C)=O)c1ccccc1OCCO)c1cnc2ccccc2c1` has composite z-score at least equal to 0.4.
[out] not fulfilled

[in] Tell me whether composite z-score is at least 0.4 here: `CCOC(=O)C[C@H]1[C@H](OC(=O)Cc2ccc3c(c2)OCO3)[C@@H](NC(=O)c2ccc3ccccc3n2)c2cc(OCCCO)ccc2N1C(=O)Cc1ccc(OC)cc1`
[out] not fulfilled

[in] Assess whether reported composite z-score for O=C1C2C=CC(C(O)c3c(F)cccc3Cl)N(Nc3ccc([N+](=O)[O-])cc3)C2C(=O)N1c1ccccc1 (stereo not given) sits at 0.4 or higher.
[out] not fulfilled

[in] Decide: is the reported value of composite z-score for `CCOC(=O)C1=CC[C@@H](c2ccc(OC)cc2)N(S(=O)(=O)c2ccc(C)cc2)[C@H]1c1ccc(C)cc1` equal to or greater than 0.4?
[out] fulfilled

[in] For this molecule, is measured composite z-score 0.4 or higher? CN1C(=O)C2C(C3CC3)C=C3CN(Cc4cccc(Cl)c4)[C@@H]([C@@H](O)Cc4ccccc4)C3C2C1=O (stereo not given in full)
[out] not fulfilled

[in] Entry CC1CC/C=C\[C@H]2OC34C=CCN(c5ccc(Cl)cc5)C(=O)[C@H]3N(CCCCCCO)C(=O)[C@]4(C)C2C(=O)O1 (stereo not given in full) : is its composite z-score no less than 0.4?
[out] fulfilled

[in] Given the entry N#Cc1ccc(NN2C(C(O)C3CC=CCC3)C=CC3C(=O)N(c4ccccc4)C(=O)C32)cc1 (stereo not given) , answer whether its composite z-score meets or surpasses 0.4.
[out] not fulfilled

[in] API: above_or_equal(metric=composite z-score, cutoff=0.4) for item CCCCC(O)C1C=CC2C(=O)N(c3ccccc3)C(=O)C2N1Nc1ccc(C#N)cc1 (stereo not given)
[out] fulfilled

[in] Quick check, composite z-score >= 0.4? `O=C1C[C@@](C(=O)NC2CC2)(c2ccc([N+](=O)[O-])cc2)[C@@H](c2ccc(CO)cc2)N1C1CCCCC1`
[out] fulfilled

[in] Can `CN(C)C(=O)[C@@]1(Cc2ccccc2CN=[N+]=[N-])COC(c2ccc(OCCCO)cc2)=N1` be said to have composite z-score at or above 0.4?
[out] fulfilled

[in] Quick check, composite z-score >= 0.4? `C=C(/C(=C/C[C@@H](OC(C)=O)c1cccc(OCCO)c1)c1cnc2ccccc2c1)C(C)C`
[out] not fulfilled

[in] Is composite z-score for Cc1ccccc1C(O)C1C=CC2C(=O)N(c3ccccc3)C(=O)C2N1Nc1ccccc1 (stereo not given) at or above 0.4?
[out] fulfilled

[in] Hi team, for C=CC[C@]1(C(=O)NCC(O)CO)COC(c2ccc(OCCCO)cc2)=N1 (stereo not given in full) , is the recorded composite z-score at or above 0.4?
[out] not fulfilled

[in] Can O=C1OCCC=C[C@H]2OC34C=CCN(c5ccc6ccccc6c5)C(=O)[C@H]3N(CCO)C(=O)[C@@H]4C12 (stereo not given in full) be said to have composite z-score at or above 0.4?
[out] not fulfilled

[in] hey, is composite z-score for this one >= 0.4? `COC(=O)[C@@]1(Cc2ccc(OC)cc2)[C@H]2c3cc(C(=O)N(C)C)[nH]c3C[C@H]2CN1C(=O)c1ccccc1`
[out] not fulfilled

[in] I'd appreciate it if you could say whether C=CCC(OC(C)=O)[C@@H]1[C@@H](N(Cc2cccc3ccccc23)C(=O)c2ccc(-c3ccccc3)cc2)c2cc(OCCCO)ccc2N1C(=O)Cc1ccc2ccccc2c1 (stereo not given in full) has composite z-score at least equal to 0.4.
[out] fulfilled

[in] Reported composite z-score at or above 0.4? `COc1ccc([Si](C)(C)[C@@H]2[C@@H](CC(=O)N3Cc4ccccc4C[C@H]3CO)O[C@]3(C(=O)N(Cc4cccc(N5CCOC5=O)c4)c4ccccc43)[C@H]2C)cc1`
[out] not fulfilled

[in] Could you please find out whether CC(C)(C)N1CC=CC23O[C@@H]4C=CCCOC(=O)C4[C@H]2C(=O)N(CCCCCCO)[C@@H]3C1=O (stereo not given in full) has composite z-score that meets 0.4 or exceeds it?
[out] not fulfilled
